Assignment: determine reported log10 of solubility for the given molecules.
# Protocol summary: Solubility of the compound
# Format: physicochemical
The base-10 logarithm of solubility, taken with solubility in µM, is what appears here.

## Task What measured log10 of solubility goes with CN(C)CCCC(=O)Nc1cncc(-c2cccc3[nH]ccc23)c1 ?
## Result 1.92

## Task For COCCCNC(=O)c1nc(-c2cccc3[nH]ccc23)no1 then?
## Result 1.89

## Task For COc1cccc(-c2ccc(C(=O)NC3CCN(CC(F)(F)F)CC3)cn2)c1 then?
## Result 0.62

## Task For c1ccc(-c2ncc(-c3cc[nH]n3)s2)cc1 then?
## Result 0.15

## Task For CN(C)CCC(=O)Nc1cncc(-c2cccc3[nH]ccc23)c1 then?
## Result 1.98

## Task For O=C(NC1CCN(CC(F)(F)F)CC1)c1ccc(-c2cccc(F)c2)nc1 then?
## Result 0.41

====

# Target system: Hematopoietic prostaglandin D synthase (Homo sapiens)
# Sequence (O60760 whole entry): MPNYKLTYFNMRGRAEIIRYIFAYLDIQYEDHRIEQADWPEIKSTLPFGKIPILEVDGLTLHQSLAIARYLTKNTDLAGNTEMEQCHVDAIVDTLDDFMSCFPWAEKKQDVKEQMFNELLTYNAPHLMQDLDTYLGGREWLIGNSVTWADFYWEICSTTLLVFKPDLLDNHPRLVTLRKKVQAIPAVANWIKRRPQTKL
# Protocol summary: Inhibition human HPGDS expressed in Escherichia coli assessed as reduction in GST enzymatic activity using MCBL and glutathione incubated for 30 mins by fluorescence based assay
Assay endpoint: pIC50
Quick note: pIC50 means taking -log10 of the concentration in moles per liter.

## Task What measured pIC50 goes with CN(C)CCC(=O)Nc1cncc(-c2cccc3[nH]ccc23)c1 ?
## Result 6.52

## Task For CCC(=O)Nc1cncc(-c2cccc3[nH]ccc23)c1 then?
## Result 7.49

## Task For O=C(CCN1CCCCC1)Nc1cncc(-c2cccc3[nH]ccc23)c1 then?
## Result 6.89

## Task For O=C(NC1CCN(CC(F)(F)F)CC1)c1ccc(N2CCOCC2)nc1 then?
## Result 6.49

## Task For c1ccc(-c2ncc(-c3cc[nH]n3)s2)cc1 then?
## Result 7.64

## Task For Cn1cncc1CC(=O)Nc1cncc(-c2cccc3[nH]ccc23)c1 then?
## Result 5.92

## Task For O=C(NC1CCN(CC(F)(F)F)CC1)c1ccc(-c2cccc(F)c2)nc1 then?
## Result 6.70

## Task For O=C(NC1CCN(CC(F)(F)F)CC1)c1ccc(N2CCCCC2)nc1 then?
## Result 7.32

## Task For O=C(CCc1cccnc1)Nc1cncc(-c2cccc3[nH]ccc23)c1 then?
## Result 7.59

## Task For O=C(NC1CCN(CC(F)(F)F)CC1)c1ccc(N2CCCC2)nc1 then?
## Result 6.64

## Task For O=C(NC1CCN(CC(F)(F)F)CC1)c1ccc(Oc2ccccc2)nc1 then?
## Result 7.51

## Task For COc1cccc(-c2ccc(C(=O)NC3CCN(CC(F)(F)F)CC3)cn2)c1 then?
## Result 7.22

## Task For COCCCNC(=O)c1nc(-c2cccc3[nH]ccc23)no1 then?
## Result 6.77

## Task For CC(C)(O)c1nc(-c2ccc(CNC(=O)c3cnc(-c4ccccn4)nc3)cc2)no1 then?
## Result 7.15

## Task For O=C(NC1CCN(CC(F)(F)F)CC1)c1ccc(-c2cc[nH]c(=O)c2)nc1 then?
## Result 7.15

## Task For CN(C)CCCC(=O)Nc1cncc(-c2cccc3[nH]ccc23)c1 then?
## Result 6.74

## Task For O=C(Cn1cnnn1)Nc1cncc(-c2cccc3[nH]ccc23)c1 then?
## Result 7.37

## Task For O=C1CC[C@@H](C(=O)Nc2cncc(-c3cccc4[nH]ccc34)c2)N1 then?
## Result 7.46

## Task For O=C1CN(c2ccc(C(=O)NC3CCN(CC(F)(F)F)CC3)cn2)CCN1 then?
## Result 6.23

## Task For O=C(NC1CCN(CC(F)(F)F)CC1)c1ccc(-c2cccc(=O)[nH]2)nc1 then?
## Result 7.15
